test system: U-251; assay: NCI tumour cell line growth inhibition, 48 h
Active and inactive are the calls of the source. Cut-off read from the data, not from the text of the source: active = GI50 up to about 1.1 µM and inactive = higher.
Property measured: GI50

Reference set (3 entries):
compound=O=S(=O)(O)c1cc(O)c(/N=N/c2ccc(O)cc2O)c2ccccc12 val="> 100 µM (inactive)"
compound="O=C1CSC(c2ccccc2[N+](=O)[O-])N1c1ccc(-c2ccc(-n3c(-c4ccccc4)nc4ccccc4c3=O)cc2)cc1 (centres undefined)" val="42.6 µM (inactive)"
compound=CCOc1ccc(NC(=O)CC#N)cc1 val="> 100 µM (inactive)"

Now consider the entry below.
Query string: Observed GI50 on U-251 for "C=C1C[C@@H](O)[C@@H](Br)C(C)(C)[C@@]12C=CC(=O)CC2" , please.
Result string: > 100 µM (inactive)
